Source listed as patent US20260116991A1.

# system-name: monkey GPC3-His protein (monkey)
# assay-procedure: ELISA, monkey GPC3-His coated; antibody 2.67 nM
Below, each of the binders is paired with its reported OD450 nm value.
Answer field: number only, no words.

binder	measured-quantity	result-number
hAb005LH3L1b (antibody, human IgG1, V domains shown) VH: EVQLVQSGAEVKKPGASVKVSCKASGYTFTDYEMHWVRQAPGQGLEWIGAIDPETGNTAYIQKFKGRATLTTDKSTSTAYMELRSLRSDDTAVYYCTRFYSYSHWGQGTTVTVSS VL: DIVMTQTPLSLPVTPGEPASISCRSSQSLVHSNRNTYLHWYLQKPGQSPQLLIYKVSNRFSGVPDRFSGSGSGTDFTLKISRVEAEDVGVYYCSQNTHVPPTFGGGTKVEIK	OD450 nm	1.33

From here, focus on the item given below.
Exercise: Using the record for hAb003LH3L1 (antibody, human IgG1, V domains shown) VH: EVQLVQSGAEVKKPGSSVKVSCKASGYRFTDYEMHWVRQAPGQGLEWMGTIDPETGNTAYTQKFMDRVTLTADKSTSTAYMELSSLRSEDTAVYYCTRGYSFTYWGQGTLVTVSS VL: DIVMTQTPLSLPVTPGEPASISCRSSQNIVHSNGNTYLQWYLQKPGQSPQLLIFKVSNRFSGVPDRFSGSGSGTDFTLKISRVEAEDVGVYYCFQGSHVPFTFGQGTKLEIK , report its OD450 nm.
Solution: 2.36
